Test: gradient 5% acetonitrile 3 min, to 50% in 2 min, to 85% in 15 min, held 3 min, 100 µL/min
Conditions: column: Zorbax Extend-C18 2.1 x 50 mm; eluents: water / acetonitrile, 0.1% formic acid
Measurement Label: RP-LC retention time (s)

[a] Cc1noc(-c2nc(-c3cccc(F)c3)no2)n1
[b] COCCNC(=O)[C@@H]1[C@H](c2cc(OC)c(OC)c(OC)c2)c2cc3c(cc2[C@H](O)[C@H]1CO)OCO3
IN: Just tell me: smaller RP-LC retention time value, a or b ? Refer to your chosen entry by its label in the reply.
OUT: b

[I] COc1cc(NC(=O)Nc2nccn(-c3cccc(Cl)c3)c2=O)cc(OC)c1
[II] CC(C)CN1CCN(C(=O)c2ccc3[nH]c4c(c3c2)CN(C(=O)C2CCC2)CC4)CC1
IN: Just tell me: smaller RP-LC retention time value, I or II ? Refer to your chosen entry by its label in the reply.
OUT: II

----------
Assay: gradient 5% acetonitrile 3 min, to 50% in 2 min, to 85% in 15 min, held 3 min, 100 µL/min
Details: column: Zorbax Extend-C18 2.1 x 50 mm; eluents: water / acetonitrile, 0.1% formic acid
Measurement Label: RP-LC retention time (s)

| Molecule | RP-LC retention time / s |
| --- | --- |
| CCOC(=O)c1ccc(NC(=O)Cn2nc3c(Oc4ccccc4)nccn3c2=O)cc1 | 852 |
| Cc1ccc(S(=O)(=O)N2CCc3c(c(-c4nnc(-c5ccccc5F)o4)nn3C)C2)cc1C | 988 |
| CCc1cc(C(=O)Nc2ccc(OC)cc2)nc2ccnn12 | 917 |
| CCOC(=O)c1noc2nc(C)nc(NCc3ccccc3)c12 | 1060 |
| Cc1cccc(NC(=O)Nc2ccc3c(c2)CCN3S(=O)(=O)c2ccccc2)c1 | 994 |
| COc1cccc(N2C=C(C(=O)N3CCCC3)S(=O)(=O)c3ccc(Cl)cc32)c1 | 853 |
| CCCCN(C)C(=O)c1sc(-c2cn(C(C)C)c3ncccc23)nc1C | 1010 |
| CC1CN(c2nc3ccccc3nc2C(C#N)C(=O)OCc2ccccc2)CC(C)O1 (stereo not given) | 1140 |
| C=CCN1CC(=O)N2Cc3[nH]c4ccccc4c3C[C@H]2C1=O | 708 |
| CC(/C=C/C(=O)NO)=C\C(C)C(=O)c1ccc(N(C)C)cc1 (stereo not given) | 723 |

[P] CCc1ccc(CNC(=O)c2cc3n(n2)CC(C)(C(=O)NC2CCCC2)N(CC)C3=O)cc1 (stereo not given)
[Q] COCCCNC(=O)CN1CCN(c2cc(C(=O)O)c3cc(NC(=O)C4CCCC4)ccc3n2)CC1
IN: Just tell me: smaller RP-LC retention time value, P or Q ? Refer to your chosen entry by its label in the reply.
OUT: Q

[I] CCCCN(C)C(=O)c1cn2cc(C)ccc2n1
[II] O=C(Nc1c2c(nn1-c1cccc(Cl)c1)CSC2)C(=O)N1CCCC1
IN: Name the one with the greater RP-LC retention time value, either I or II as given. Refer to your chosen entry by its label in the reply.
OUT: II
(II: 914 s, I: 608 s)

----------
Assay: gradient 5% acetonitrile 3 min, to 50% in 2 min, to 85% in 15 min, held 3 min, 100 µL/min
Conditions: column: Zorbax Extend-C18 2.1 x 50 mm; eluents: water / acetonitrile, 0.1% formic acid
Measurement Label: RP-LC retention time (s)

| Compound | Measurement Label | Measured Number |
| --- | --- | --- |
| Cc1csc(NC(=O)c2cc(Sc3nncn3C)ccc2N)n1 | RP-LC retention time | 700 |
| CC(=O)Nc1ccc(-c2noc(C3CCCN(C(=O)CCC4CCCC4)C3)n2)cc1 (stereo not given) | RP-LC retention time | 923 |
| Cc1nn(C)c(C)c1S(=O)(=O)N1CCc2nn(Cc3ccccc3)c(=O)n2CC1 | RP-LC retention time | 714 |
| c1cc(-c2sc(-c3ccncc3)c(-c3ccncc3)c2-c2ccncc2)ccn1 | RP-LC retention time | 575 |
| CC(C)n1cc(S(=O)(=O)Nc2ccc(F)cc2F)c2cccnc21 | RP-LC retention time | 890 |
| COCCC(=O)N1CCC2(CCC2O)CC1 (stereo not given) | RP-LC retention time | 593 |
| Cn1cccc1C(=O)Nc1cnn(-c2ncc(N3CCCCC3)cn2)c1 | RP-LC retention time | 819 |
| CCN(CC)CCNC(=O)CCC(=O)N1CCc2c(c(C(=O)N3CCCCC3)nn2C)C1 | RP-LC retention time | 573 |
| Cc1cccc(S(=O)(=O)N2CCC(c3nc(C(=O)N4CCOCC4)c(C)o3)CC2)c1 | RP-LC retention time | 819 |
| CC(C)CNC(=O)C1CCN(c2cnc(N3CCCCCC3)nc2)CC1 | RP-LC retention time | 716 |

----------
Assay: gradient 5% acetonitrile 3 min, to 50% in 2 min, to 85% in 15 min, held 3 min, 100 µL/min
Details: column: Zorbax Extend-C18 2.1 x 50 mm; eluents: water / acetonitrile, 0.1% formic acid
Measurement Label: RP-LC retention time (s)

See these solved cases before continuing.
| Compound | Unit Abbrev | Measured Number |
| --- | --- | --- |
| CCOC(=O)N1CCN(Cc2c(O)ccc3ccccc23)CC1 | s | 691 |
| CS(=O)(=O)c1ccc(C(=O)Nc2cccc(Cl)c2Cl)cc1 | s | 791 |
| CC(C)n1cc(S(=O)(=O)NCc2cccs2)c2cccnc21 | s | 833 |

[a] O=C(Cn1nc2c3sc(N4CCCCC4)nc3ncn2c1=O)Nc1ccc(Cl)cc1F
[b] O=C1C(N2CCCN(S(=O)(=O)c3cccnc3)CC2)CCN1CC1CC1 (stereo not given)
IN: Just tell me: smaller RP-LC retention time value, a or b ? Refer to your chosen entry by its label in the reply.
OUT: b

----------
Test: gradient 5% acetonitrile 3 min, to 50% in 2 min, to 85% in 15 min, held 3 min, 100 µL/min
Conditions: column: Zorbax Extend-C18 2.1 x 50 mm; eluents: water / acetonitrile, 0.1% formic acid
Measurement Label: RP-LC retention time (s)

| Compound | RP-LC retention time / s |
| --- | --- |
| CN(C)C(=O)c1csc(S(=O)(=O)N2CCC(C(=O)Nc3ccccc3F)CC2)c1 | 770 |
| O=C(Cn1cnc(-c2cccs2)cc1=O)NCc1nc2ccccc2[nH]1 | 570 |
| CCc1ccc2nc(NCc3ccccn3)sc2c1 | 621 |
| CC(=O)OCCN1c2ccccc2Sc2cnccc21 | 663 |

[a] CCc1ccc(S(=O)(=O)N2CCC(n3cnnc3C)CC2)cc1
[b] Cc1ccc(N2CC(c3noc(-c4cc(Cl)ccc4F)n3)CC2=O)cc1 (stereo unspecified)
IN: Just tell me: smaller RP-LC retention time value, a or b ? Refer to your chosen entry by its label in the reply.
OUT: a

----------
Experiment: gradient 5% acetonitrile 3 min, to 50% in 2 min, to 85% in 15 min, held 3 min, 100 µL/min
Settings: column: Zorbax Extend-C18 2.1 x 50 mm; eluents: water / acetonitrile, 0.1% formic acid
Measurement Label: RP-LC retention time (s)

See these solved cases before continuing.
| Molecule | RP-LC retention time, s |
| --- | --- |
| CCn1c(SCC(=O)Nc2ccccc2C(F)(F)F)nc2c(c1=O)SC(C)C2 (stereo unspecified) | 854 |
| Cc1nn(CC(=O)N2CCCCCC2)c(=O)c2c(-n3cccc3)n(-c3ccccc3)nc12 | 978 |
| O=C(CCSc1ccccc1)N1CCCC(c2nnc(-c3cccs3)o2)C1 (stereo unspecified) | 837 |
| Cc1cccc(Nc2c(-c3cc(Br)ccc3O)nc3ncccn23)c1 | 1020 |
| CCC(=O)N1CCc2cn(C)c3cccc(c23)C1 | 768 |

[P] O=C(NCC1CCCCC1)C1CCCN(c2nnc3ccc(Cl)cn23)C1 (stereo unspecified)
[Q] CNC(=O)N1CCC(OC2CCN(Cc3ccccc3)CC2)CC1
IN: Just tell me: smaller RP-LC retention time value, P or Q ? Refer to your chosen entry by its label in the reply.
OUT: Q

----------
Experiment: gradient 5% acetonitrile 3 min, to 50% in 2 min, to 85% in 15 min, held 3 min, 100 µL/min
Conditions: column: Zorbax Extend-C18 2.1 x 50 mm; eluents: water / acetonitrile, 0.1% formic acid
Measurement Label: RP-LC retention time (s)

See these solved cases before continuing.
| Molecule | Measured Number |
| --- | --- |
| O=C(Cn1nc2n(c1=O)CCCC2)N1CCN(c2ccc(F)cc2)CC1 | 651 |
| Cn1c(=O)c(=O)n(C)c2cc(N3CCCC3)c(NC(=O)Cc3ccc(Cl)cc3)cc21 | 685 |
| O=C(c1ccsc1)N1CCN(c2nc(CN3CCCCC3)cs2)CC1 | 597 |
| COc1ccc(Cl)c2c(=O)c3c([nH]c12)CCN(CC(=O)Nc1cccc(Cl)c1C)C3 | 651 |

[a] COCCn1cc(CC(=O)N2CCN(c3ccccn3)CC2)c2cccnc21
[b] O=C(CN1C(=O)C(C(=O)N2CCCCC2)Sc2ccccc21)NCCC1=CCCCC1 (stereo not given)
IN: Name the one with the greater RP-LC retention time value, either a or b as given. Refer to your chosen entry by its label in the reply.
OUT: b
